These data points were gathered from patent US20060100226A1.

Reported pIC50 values for a set of compounds
- system_under_test: murine MEKK2 (mMEKK2) (Mus musculus)
- Sequence (Q61083 whole entry): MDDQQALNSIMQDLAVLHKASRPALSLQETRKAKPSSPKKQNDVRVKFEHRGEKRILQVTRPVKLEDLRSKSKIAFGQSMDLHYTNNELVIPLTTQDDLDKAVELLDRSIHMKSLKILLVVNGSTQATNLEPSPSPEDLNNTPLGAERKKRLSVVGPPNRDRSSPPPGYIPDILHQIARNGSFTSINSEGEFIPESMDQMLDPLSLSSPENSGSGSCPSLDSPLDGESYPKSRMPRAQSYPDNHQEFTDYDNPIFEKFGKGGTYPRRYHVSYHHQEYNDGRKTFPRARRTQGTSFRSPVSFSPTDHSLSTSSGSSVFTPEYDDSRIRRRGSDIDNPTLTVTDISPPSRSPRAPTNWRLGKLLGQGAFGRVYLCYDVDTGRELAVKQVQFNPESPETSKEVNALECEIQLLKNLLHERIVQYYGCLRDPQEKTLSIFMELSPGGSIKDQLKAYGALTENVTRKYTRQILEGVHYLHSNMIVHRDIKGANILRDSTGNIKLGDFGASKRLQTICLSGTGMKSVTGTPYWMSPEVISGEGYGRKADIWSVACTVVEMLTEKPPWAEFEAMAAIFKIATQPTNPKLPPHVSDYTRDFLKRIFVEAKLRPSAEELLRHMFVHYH
- method_summary: MEKK2 PhosphoELISA (mMEKK2/MKK4)
- Type: biochemical
- experimental_conditions: substrate MKK4/SKK1 (unactive), ATP final 10 μM, O.D. 450 nm
- Source text: Another useful method for assessing protein kinase inhibition, and specifically MEKK2 inhibition, of compounds of the invention involves the MEKK2 phospho-antibody enzyme-linked immunosorbent assay (PhosphoELISA). This screening panel, which involves relatively few steps, is a useful indicator of potential inhibitors of MEKK2. Reactions to murine MEKK2 are observed as optical density measurements at an absorbance of 450 nm. […]
pIC50: −log10 of the molar value.

Challenge: So what's the measured pIC50 for this one? CCc1nc(C)c(-c2nc(SCc3cccc(NC(=O)c4ccc(Cl)c(Cl)c4)c3)[nH]c(=O)c2C#N)[nH]1
Response given: < 4.40

Challenge: Fill blank: measured pIC50 of the compound COc1cccc(-c2nc(SCc3cccc(NC(=O)c4c(-c5ccccc5)noc4C)c3)[nH]c(=O)c2C#N)c1 is ____.
Response given: > 5.00

Challenge: What pIC50 value was documented for this compound, COc1ccc(-c2nc(SCc3cccc(NCc4ccc(Cl)c(Cl)c4)c3)[nH]c(=O)c2C#N)cc1-c1cccs1 ?
Response given: > 6.00

Challenge: Any idea what its pIC50 is? The compound is COc1cccc(-c2nc(SCCCn3cnc(NC(=O)c4ccc(Cl)c(Cl)c4)n3)[nH]c(=O)c2C#N)c1
Response given: < 4.40
